System: breast cancer SK-BR-3 cell line
Experiment: SRB anti-proliferative assay, SK-BR-3
Type: cell-based
Conditions: Homo sapiens, SK-BR-3, 120 h, read-out: SK-BR-3 (IC50±SD, μM) for 120 h
test readout: IC50 (µM)
Reply with just the number (in µM).

Item Cc1cc(C)n(-c2nc(NN=Cc3c[nH]c4ccccc34)nc(Nc3ccc(Br)cc3)n2)n1 with breast cancer SK-BR-3 cell line - IC50?
10.8

Source of measurements: paper PMC6437812
